Assign pIC50 to each entry below.
To interpret pIC50, take it as minus log10 of a concentration measured in moles per litre.

Request body: readout pIC50, system Human HDAC-1 (Homo sapiens), query `Nc1ccccc1NC(=O)c1ccc(/C=C/CNC2Cc3ccccc3C2)cc1` . Return the value. 6.10

For Human HDAC-1 (Homo sapiens), provide pIC50 of `CN(C/C=C/c1ccc(C(=O)Nc2ccccc2N)cc1)Cc1ccccc1` please. 6.77

Form field: pIC50 recorded for `Nc1ccccc1NC(=O)c1ccc(/C=C/CN2Cc3ccccc3C2)cc1` with Human HDAC-1 (Homo sapiens) (enter value) 6.59

----------
biological target: cloned recombinant human HDAC-1 (Homo sapiens); test: Human HDAC-1 Assay 1: [3H]-acetylated histone deacetylase assay; settings: Assay 1, unbracketed data; [3H]-acetylated histone substrate, 10 min at 37° C.
Sequence (Q13547 whole entry): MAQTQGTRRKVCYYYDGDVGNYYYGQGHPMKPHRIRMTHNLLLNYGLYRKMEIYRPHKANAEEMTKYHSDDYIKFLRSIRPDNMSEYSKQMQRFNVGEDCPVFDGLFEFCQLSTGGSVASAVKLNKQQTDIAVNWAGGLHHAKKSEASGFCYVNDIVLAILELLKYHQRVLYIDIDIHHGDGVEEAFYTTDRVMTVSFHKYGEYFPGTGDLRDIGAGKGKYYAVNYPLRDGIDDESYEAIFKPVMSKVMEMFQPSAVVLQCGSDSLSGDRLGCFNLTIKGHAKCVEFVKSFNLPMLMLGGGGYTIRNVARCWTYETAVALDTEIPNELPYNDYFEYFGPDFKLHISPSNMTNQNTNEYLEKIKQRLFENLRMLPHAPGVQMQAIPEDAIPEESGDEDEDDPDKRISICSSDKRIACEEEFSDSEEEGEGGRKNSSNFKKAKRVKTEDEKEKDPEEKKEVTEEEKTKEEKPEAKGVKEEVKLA
Provide the recorded IC50 for the entries that follow.
Report as a plain number; the unit µM is understood.

If you can, please state the reported IC50 value of `COc1cc(C)nc(NC/C=C/c2ccc(C(=O)Nc3ccccc3N)cc2)n1` . 4

Please report the recorded IC50 for `Nc1ccccc1NC(=O)c1ccc(C(=O)/C=C/c2ccc(Cl)c(Cl)c2)cc1` . 5

Which IC50 is reported for this compound? `Nc1ccccc1NC(=O)c1ccc(/C=C/C(=O)N(Cc2cccnc2)Cc2cccnc2)cc1` 15

May I ask what IC50 has been recorded for `Nc1ccccc1NC(=O)c1ccc(C(=O)/C=C/c2ccc(OC(F)F)c(OC3CC3)c2)cc1` ? 3

I have this compound here, `Nc1ccccc1NC(=O)c1ccc(C(=O)/C=C/c2ccc(C(F)(F)F)cc2)cc1` , and I need its recorded IC50. 5

I'd like to know its IC50. The compound in question is `COc1cc(/C=C/C(=O)c2ccc(C(=O)Nc3ccccc3N)cc2)cc(OC)c1OC` 3

# IC50 lookup, item `COc1ccc(/C=C/C(=O)c2ccc(C(=O)Nc3ccccc3N)cc2)cc1OC1CCCC1` 4

Tell me the measured IC50 of `Nc1ccccc1NC(=O)c1ccc(C(=O)/C=C/c2cccnc2)cc1` , please. 2

I would be grateful if you could share the reported IC50 for `Nc1ccccc1NC(=O)c1ccc(/C=C/C(=O)NCCOc2ccccc2)cc1` . 1

What IC50 value was documented for this compound, `COc1cc(CNC(=O)/C=C/c2ccc(C(=O)Nc3ccccc3N)cc2)cc(OC)c1OC` ? 3

Item under review: `Nc1ccccc1NC(=O)c1ccc(/C=C/C(=O)NCCc2ccccn2)cc1` . Reported IC50? 4

Give the measured IC50 of `Nc1ccccc1NC(=O)c1ccc(/C=C/C(=O)NCCc2c[nH]c3ccccc23)cc1` . 1

Dear colleague, I am looking for the recorded IC50 of the following compound: `Nc1ccccc1NC(=O)c1ccc(/C=C/C(=O)c2ccccc2)cc1` 4

I'd like to know its IC50. The compound in question is `Nc1ccccc1NC(=O)c1ccc(/C=C/C(=O)N2CCOCC2)cc1` 20

So what's the measured IC50 for this one? `Nc1ccccc1NC(=O)c1ccc(/C=C/C(=O)NC2Cc3ccccc3C2)cc1` 3

// IC50 lookup, key: `COc1ccc(C(=O)/C=C/c2ccc(C(=O)Nc3ccccc3N)cc2)cc1` 13

Item `Nc1ccccc1NC(=O)c1ccc(/C=C/C(=O)N2CCN(c3ccccn3)CC2)cc1` has what recorded IC50? 11

Requested field: IC50. Item: `Nc1ccccc1NC(=O)c1ccc(C(=O)/C=C/c2ccc(Cl)cc2)cc1` 6
